Data origin: PubChem BioAssay (NCI)

Test system: TK-10 renal
TEST_METHOD_NOTES: NCI tumour cell line growth inhibition, 48 h
Entries and their measured TGI follow.
Give your result in µM as a bare value.

The cases that follow already have their TGI on record.
{"QUERY_SMILES": "CC1(C)N=C(N)N=C(N)N1c1ccc(CCCCc2ccc(Cl)c(S(=O)(=O)F)c2)c(Cl)c1", "PROPERTY_LABEL": "TGI", "VALUE_OBSERVED": 48.8}
{"QUERY_SMILES": "CN(C)c1ccc(N=Nc2ccccn2)c(O)c1", "PROPERTY_LABEL": "TGI", "VALUE_OBSERVED": 43.9}
{"QUERY_SMILES": "CC(=O)O[C@H]1CC[C@@]2(C)C(=CC[C@H]3[C@@H]4C/C(=C\\c5ccc(N(C)C)cc5)[C@H](OC(C)=O)[C@@]4(C)CC[C@@H]32)C1", "PROPERTY_LABEL": "TGI", "VALUE_OBSERVED": 35.6}
{"QUERY_SMILES": "Oc1cn(-c2ccc(Cl)cc2)nc1-c1n[nH]c(=S)n1-c1ccccc1", "PROPERTY_LABEL": "TGI", "VALUE_OBSERVED": 58.7}
{"QUERY_SMILES": "COc1ccc(Cn2c(N)c(S(=O)(=O)c3ccc(Cl)cc3)c3nc(C#N)c(C#N)nc32)cc1", "PROPERTY_LABEL": "TGI", "VALUE_OBSERVED": 41.5}

Switching to the query record.
stdin: Report TGI under test system TK-10 renal for Cn1c2ccccc2c2ncc3[nH]c4ccccc4c3c21 .
stdout: 45.1
